# TESTED SYSTEM: MspA-PBA (boronic acid appended hetero-octameric MspA) (Mycolicibacterium smegmatis, UniProt A0QR29, D117C/D118N/D120N/D145R/D161R/E166K)
# Construct: H6 (hexa-histidine) (C); 3-(maleimide) phenylboronic acid (MPBA) adduct on the thiol of Cys90; made in house; host or cells: E. coli BL21 (DE3) pLysS, co-expression from pETDuet-1
# Sequence (A0QR29 other isoform, or with tags, fused parts or gaps D117N/D118N/D120N/D145R/D161R/E166K): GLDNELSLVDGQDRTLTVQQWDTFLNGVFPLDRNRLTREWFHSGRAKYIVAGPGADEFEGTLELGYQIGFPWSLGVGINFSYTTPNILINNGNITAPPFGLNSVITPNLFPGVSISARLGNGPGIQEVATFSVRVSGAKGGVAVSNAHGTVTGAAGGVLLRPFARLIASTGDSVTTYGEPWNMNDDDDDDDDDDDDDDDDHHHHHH
# Sequence (A0QR29 other isoform, or with tags, fused parts or gaps D117C/D118N/D120N/D145R/D161R/E166K): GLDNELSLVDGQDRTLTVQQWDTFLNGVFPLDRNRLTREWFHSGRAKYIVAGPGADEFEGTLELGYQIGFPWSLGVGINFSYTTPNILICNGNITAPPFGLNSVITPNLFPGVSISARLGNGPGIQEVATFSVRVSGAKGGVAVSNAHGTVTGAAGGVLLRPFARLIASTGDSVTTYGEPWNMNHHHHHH
# PROTOCOL DESCRIPTION: Single channel recording of alditol binding to MspA-PBA nanopore (standards and zero-sugar drinks)
# Design: species or system Mycobacterium smegmatis
# CONDITIONS: alditol 8 mM in cis, +100 mV, N=3
Reported τoff values for the following compounds.
Response body: numeric value in ms, unit text excluded.

Example entries begin here.
Asked: Would you kindly share the measured τoff for `OC[C@@H](O)[C@@H](O)CO` ?
Given back: 44.2

Asked: Which τoff is reported for this compound? `OC[C@@H](O)[C@H](O)[C@@H](O)CO`
Given back: 474.6

Asked: // lookup τoff for `OCC(O)CO`
Given back: 10.3

Continue with the compound presented below.
Asked: τoff for `OC[C@@H](O)[C@@H](O)[C@H](O)[C@@H](O)CO` ?
Given back: 2200

---

# TESTED SYSTEM: MspA-PBA (phenylboronic acid modified hetero-octameric (N90C)1(M2)7 MspA) (Mycolicibacterium smegmatis, UniProt A0QR29, D117C/D118N/D120N/D145R/D161R/E166K)
# Construct: H6 (hexa-histidine) (C); 3-(maleimide) phenylboronic acid (MPBA) adduct on the thiol of Cys90; made in house; host or cells: E. coli BL21 (DE3) pLysS, co-expression from pETDuet-1
# Assay type: binding, Mycobacterium smegmatis
# CONDITIONS: NMP 300 μM in cis, +200 mV, N=3
OBSERVATION TYPE: τoff (mean dwell time)
Please report the result as a number followed by the unit.

Sample records with τoff (mean dwell time):
Asked: # τoff (mean dwell time) lookup, item Nc1ccn([C@@H]2O[C@H](COP(=O)(O)O)[C@@H](O)[C@H]2O)c(=O)n1 [CMP, Cytidine-5′-monophosphate]
Given back: 47.6 ± 0.9 ms

Asked: Reported τoff (mean dwell time) for O=c1ccn([C@@H]2O[C@H](COP(=O)(O)O)[C@@H](O)[C@H]2O)c(=O)[nH]1 [UMP, uridine-5′-monophosphate] : what is it?
Given back: 130.3 ± 14.8 ms

Asked: Looking for the measured τoff (mean dwell time) of O=c1[nH]cc([C@@H]2O[C@H](COP(=O)(O)O)[C@@H](O)[C@H]2O)c(=O)[nH]1 [Ψ, Pseudouridine-5′-monophosphate] , can you help?
Given back: 36.9 ± 3.4 ms

Asked: Report τoff (mean dwell time) for Nc1ncnc2c1ncn2[C@@H]1O[C@H](COP(=O)(O)O)[C@@H](O)[C@H]1O [AMP, adenosine-5′-monophosphate] please.
Given back: 72.76 ± 2.07 ms

# next compound below
Asked: What value of τoff (mean dwell time) has been reported for the following compound? Nc1nc2c(ncn2[C@@H]2O[C@H](COP(=O)(O)O)[C@@H](O)[C@H]2O)c(=O)[nH]1 [GMP, guanosine-5′-monophosphate]
Given back: 96.3 ± 10.4 ms

---

Parameter: 1/τoff. Scope: all listed entries.
# TESTED SYSTEM: MspA-PBA (phenylboronic acid modified hetero-octameric (N90C)1(M2)7 MspA) (Mycolicibacterium smegmatis, UniProt A0QR29, D117C/D118N/D120N/D145R/D161R/E166K)
# Construct: H6 (hexa-histidine) (C); 3-(maleimide) phenylboronic acid (MPBA) adduct on the thiol of Cys90; made in house; host or cells: E. coli BL21 (DE3) pLysS, co-expression from pETDuet-1
# Assay type: binding, Mycobacterium smegmatis
# CONDITIONS: NMP 100 μM in cis, +200 mV, three independent measurements
Write it as a number; the unit s⁻¹ goes unstated.

Asked: What measured 1/τoff goes with Nc1nc2c(ncn2[C@@H]2O[C@H](COP(=O)(O)O)[C@@H](O)[C@H]2O)c(=O)[nH]1 [GMP, guanosine-5′-monophosphate] ?
Given back: 11.5

Asked: Could you tell me which 1/τoff is on file for Nc1ncnc2c1ncn2[C@@H]1O[C@H](COP(=O)(O)O)[C@@H](O)[C@H]1O [AMP, adenosine-5′-monophosphate] ?
Given back: 14.9

Asked: Can you share its 1/τoff? I mean this molecule: Nc1ccn([C@@H]2O[C@H](COP(=O)(O)O)[C@@H](O)[C@H]2O)c(=O)n1 [CMP, Cytidine-5′-monophosphate]
Given back: 19.0

We next turn to a different molecule, shown below.
Asked: Looking for the measured 1/τoff of O=c1ccn([C@@H]2O[C@H](COP(=O)(O)O)[C@@H](O)[C@H]2O)c(=O)[nH]1 [UMP, uridine-5′-monophosphate] , can you help?
Given back: 7.8

// provenance: patent US20240418701A1
